All values here come from patent US20230074436A1.

As shown below, each of these binders has a reported Bmax (O.D. at 450 nm) value.
study system: rat alpha-synuclein (rat, UniProt P37377 1-140)
run description: direct ELISA on coated antigen;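 note: plates coated with recombinant human, mouse or rat alpha-synuclein, purified antibody titrated 10 µg/mL down to 0.6 ng/mL for 1 h, bound antibody detected by anti-rat HRP with TMB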
Just the number please, in OD, no unit attached.

Below are worked cases with known answers.
22E11 (antibody, IgG1, V domains shown, also called clone 22E11) VH: AVQLVESGGGLVQPKESLKISCAASGFTFSTAAMYWVRQAPGKGLEWVTRIRTKPNNYATYYADSVKGRFTISRDDSKSMVYLQMDNLKTEDTAMYYCTADYYDGTPFAYWGQGTLVTVSS VL: AVVMTQTPVSLSVSLGGQVSISCRSSQSLVHNNGITYLSWYLQKPGQSPQLPIYKVSNRFSGFSDRFSGGGSGTDFTLKISRVEPDDLGLYYCGQGTQYPYTFGAGTKLELK: 0.5
18B4 (antibody, IgG2b, V domains shown, also called clone 18B4) VH: EVQLVESGGGLVQPGRSLKLSCAASGFTFSSFAMAWVRQAPKKGLEWVATITSGGSKTYYPDSVKGRFTISRDNAKSTLYLQMDSLRSEDTATYYCAKGYFDYWGQGVMVTVSS VL: DVVLTQTPPTLSATIGQSVSISCRSSQSLLHSNGNTYLHWLLQRPGQSPQLLIYLVSRLESGVPNRFSGSGSGTDFTLKISGVEAEDLGVYYCVQGTHAPLTFGSGTKLEIK: 1.21
20H4 (antibody, rat IgG2b, V domains shown, also called clone 20H4; rat 20H4) VH: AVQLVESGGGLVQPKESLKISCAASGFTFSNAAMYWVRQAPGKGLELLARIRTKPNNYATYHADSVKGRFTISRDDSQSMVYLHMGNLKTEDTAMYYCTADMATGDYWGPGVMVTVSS VL: DIQMTQSPPVLSVSVGDRVTLSCKASQNINKNLDWYQQKHGEAPKPLIYSTNNLQTGVPSRFSGSGSGTDYTLTISSLQPEDVATYYCYQYKSAWTFGGGTKLELR: 0.2

Now for another entry.
Sample 22D11 (antibody, rat IgG1, V domains shown, also called clone 22D11) VH: AVQFVESGGGLVRPKESLKISCTASGFTFTNAAIYWVRQAPGKGLECIARIRTKPNNYATYYADSVRGRFTISRDDSKPMVYLQMNELKTEDTAMYYCAADASRGDYWGQGVMVTVSS VL: DIQMTQSPSVLSASVGDRVTFSCKASQNINKNLDWYQQKLGEVPKVLIYFTNNLQTGIPSRFSGSGSGTDYTLTISSLQPEDVATYYCYQYTSGFTFGAGTKLELK — what was its Bmax (O.D. at 450 nm)?
0.05
